Would you mind telling me the reported pIC50 of each entry?
Test target: EGFR L858R mutant (Homo sapiens (Human), UniProt P00533, L858R)
Sequence (P00533 25-1210 L858R): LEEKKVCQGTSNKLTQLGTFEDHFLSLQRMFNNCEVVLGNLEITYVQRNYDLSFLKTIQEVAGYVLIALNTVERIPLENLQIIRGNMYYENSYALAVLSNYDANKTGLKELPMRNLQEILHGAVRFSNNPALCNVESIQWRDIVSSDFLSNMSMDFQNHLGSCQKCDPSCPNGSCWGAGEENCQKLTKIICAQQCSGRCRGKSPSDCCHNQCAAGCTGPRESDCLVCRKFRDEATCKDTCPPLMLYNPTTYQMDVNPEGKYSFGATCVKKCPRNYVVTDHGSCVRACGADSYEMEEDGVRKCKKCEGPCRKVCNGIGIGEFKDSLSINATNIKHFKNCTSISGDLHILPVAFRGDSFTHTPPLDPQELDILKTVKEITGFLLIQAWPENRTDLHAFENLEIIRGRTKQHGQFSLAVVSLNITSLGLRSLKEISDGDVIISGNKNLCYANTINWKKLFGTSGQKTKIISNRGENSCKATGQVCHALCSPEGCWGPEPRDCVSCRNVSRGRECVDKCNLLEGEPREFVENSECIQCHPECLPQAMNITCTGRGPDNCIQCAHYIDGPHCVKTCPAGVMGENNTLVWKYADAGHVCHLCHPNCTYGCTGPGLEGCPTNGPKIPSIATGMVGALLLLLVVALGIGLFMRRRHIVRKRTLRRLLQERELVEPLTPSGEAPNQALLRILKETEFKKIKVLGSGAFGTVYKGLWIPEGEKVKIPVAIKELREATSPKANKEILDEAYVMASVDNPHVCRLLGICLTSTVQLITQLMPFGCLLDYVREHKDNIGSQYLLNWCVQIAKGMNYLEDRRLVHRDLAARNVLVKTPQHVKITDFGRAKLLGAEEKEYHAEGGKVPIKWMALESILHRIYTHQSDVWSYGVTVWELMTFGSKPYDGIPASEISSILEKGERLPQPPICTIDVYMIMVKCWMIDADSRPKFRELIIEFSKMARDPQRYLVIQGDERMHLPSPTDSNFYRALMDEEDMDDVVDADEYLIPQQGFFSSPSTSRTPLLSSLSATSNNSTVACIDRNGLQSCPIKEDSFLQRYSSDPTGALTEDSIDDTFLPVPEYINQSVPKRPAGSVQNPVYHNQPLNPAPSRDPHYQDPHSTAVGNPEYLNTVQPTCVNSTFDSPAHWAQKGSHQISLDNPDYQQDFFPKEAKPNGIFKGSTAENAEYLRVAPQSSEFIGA
Procedure details: HotSpot radiometric kinase assay, EGFR L858R mutant
Run parameters: 10 μM ATP
pIC50 here is simply -log10 of the concentration when that concentration is written in mol/L.

Entry C[C@H]1CN(C)Cc2c(c(C#N)nn2C)/C=C/c2n[nH]c3ccc(cc23)-c2cnn(C)c2O1 [Example 159] — recorded pIC50 = 7.46

Entry Cc1onc2c1/C=C/c1n[nH]c3ccc(cc13)-c1cnn(C)c1O[C@@H](C)CN(C)C2 [Example 134] — recorded pIC50 = 6.74

Entry CCOc1nn(C)c2c1/C=C/c1n[nH]c3ccc(cc13)-c1cnn(C)c1O[C@@H](C)CN(C(C)C)C2 [Example 156] — recorded pIC50 = 8.36

Entry Cc1nn(C)c2c1CN(C)C[C@H](C)Oc1c(cnn1C)-c1ccc3[nH]nc(c3c1)/C=C/2 [Example 130] — recorded pIC50 = 7.07

Entry CC(C)Oc1nn(CCO)c2c1/C=C/c1n[nH]c3ccc(cc13)-c1cnn(C)c1OCC(CF)N(C)C2 (stereo not shown) [Example 226] — recorded pIC50 = 7.29

Entry Cc1c2c(nn1CCO)CN(C)C[C@H](C)Oc1c(cnn1C)-c1ccc3[nH]nc(c3c1)/C=C/2 [Example 60] — recorded pIC50 = 7.00

Entry Cc1nn(CCO)c2c1/C=C/c1n[nH]c3ccc(cc13)-c1cnn(C)c1O[C@@H](C)CN(C)C2 [Example 61] — recorded pIC50 = 8.91
